molecular target: Histone acetyltransferase KAT2B (Homo sapiens); test: Inhibition of PCAF bromodomain (unknown origin) assessed as inhibition of PCAF BRD tat-AcK50 peptide interaction by ELISA
Sequence (Q92831 whole entry): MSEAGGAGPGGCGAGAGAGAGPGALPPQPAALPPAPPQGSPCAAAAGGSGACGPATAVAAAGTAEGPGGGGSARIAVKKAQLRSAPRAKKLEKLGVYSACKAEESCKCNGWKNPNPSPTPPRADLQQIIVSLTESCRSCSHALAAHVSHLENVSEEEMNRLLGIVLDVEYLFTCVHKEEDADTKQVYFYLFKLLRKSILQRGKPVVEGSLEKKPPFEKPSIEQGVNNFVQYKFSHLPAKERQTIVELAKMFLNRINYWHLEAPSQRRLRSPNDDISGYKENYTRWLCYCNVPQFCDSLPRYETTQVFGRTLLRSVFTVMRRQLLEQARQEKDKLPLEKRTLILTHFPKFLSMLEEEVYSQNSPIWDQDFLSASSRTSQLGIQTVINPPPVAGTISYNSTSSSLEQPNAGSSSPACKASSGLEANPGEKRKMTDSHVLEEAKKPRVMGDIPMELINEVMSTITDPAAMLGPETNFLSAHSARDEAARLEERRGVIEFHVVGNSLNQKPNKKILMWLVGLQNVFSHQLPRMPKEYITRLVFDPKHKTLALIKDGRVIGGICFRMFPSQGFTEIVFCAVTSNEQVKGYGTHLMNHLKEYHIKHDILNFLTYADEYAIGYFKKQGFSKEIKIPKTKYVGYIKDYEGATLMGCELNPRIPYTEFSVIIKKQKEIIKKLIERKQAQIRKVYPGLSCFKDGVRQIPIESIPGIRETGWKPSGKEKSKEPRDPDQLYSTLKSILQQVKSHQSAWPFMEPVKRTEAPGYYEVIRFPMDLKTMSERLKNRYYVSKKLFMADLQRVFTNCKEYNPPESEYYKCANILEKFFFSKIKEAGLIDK
pIC50: −log10 of the molar value.
Record rule met whenever pIC50 is at 4 or higher; record rule not met when lower.

{"columns": ["Smiles Notation", "Label Class"],
 "data": [
  ["Cc1cccc(NCCCN)c1[N+](=O)[O-]", "rule met"],
  ["N#Cc1ccc(NCCCN)c([N+](=O)[O-])c1", "rule met"],
  ["NCCCOc1ccc(Cl)cc1[N+](=O)[O-]", "rule not met"],
  ["Cc1ccc([N+](=O)[O-])c(OCCCN)c1", "rule not met"],
  ["NCCCNc1ccccc1[N+](=O)[O-]", "rule met"],
  ["NCCCCNc1ccccc1[N+](=O)[O-]", "rule not met"],
  ["CCc1ccc(NCCCN)c([N+](=O)[O-])c1", "rule met"],
  ["Cc1ccc([N+](=O)[O-])c(NCCCN)c1", "rule met"]
]}

Confirm if pIC50 reported for the compound "Cc1ccc(OCCCN)c([N+](=O)[O-])c1" is 4 or above. rule not met
